Cited source for all entries: patent US20230272051A1

- measured.target: T1, SARS-CoV-2 Receptor Binding Domain (RBD) protein (SARS-CoV-2, UniProt P0DTC2 319-541)
- T1 construct: also called Sars-Cov-2 (COV2)
- assay.explanation: SPR (Carterra LSA); scFv captured by anti-V5, RBD as analyte
measured.property: koff (s⁻¹)
One number for each entry, in s⁻¹.

// below: answered binders
{"columns": ["binder", "koff (s⁻¹)"],
 "data": [
  ["COVID19_P02_C07 (scFv, V domains shown) VH: QVQLVQSGAEVKKPGSSVKVSCKASGYTFSSYYIHWVRQAPGQGLEWMGGIIPIFGEAEYAHKFQGRVTITADESTSTAYMELSSLRSEDTAVYYCAMETVMGGMDVWGQGTLVTVSS VL: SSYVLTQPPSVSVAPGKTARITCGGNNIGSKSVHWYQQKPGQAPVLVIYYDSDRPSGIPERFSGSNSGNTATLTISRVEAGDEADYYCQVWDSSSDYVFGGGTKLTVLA", 0.00279],
  ["COVID19_P01_C09 (scFv, V domains shown) VH: QVQLVQSGAEVKKPGSSVKVSCKASGYTFTSFDIHWVRQAPGQGLEWMGGIIPIFGTANYAQKFQGRVTITADESTSTAYMELSSLRSEDTAVYYCAYETVMGGMDVWGQGTLVTVSS VL: SSYVLTQPPSVSVAPGKTARITCGGNNIGSKSVHWYQQKPGQAPVLVIYYDSDRPSGIPERFSGSNSGNTATLTISRVEAGDEADYYCQVWDSSSYYVFGGGTKLTVLA", 0.0097]
]}

Provide the reported koff of each entry below, same order.
1. COVID19_P13_G12 (scFv, V domains shown) VH: QVQLVQSGAEVKKPGSSVKVSCKASGYTFINYEIHWVRQAPGQGLEWMGGITPIFGTANYAQKFQGRVTITADESTSTAYMELSSLRSEDTAVYYCARDTVMGGMDVWGQGTLVTVSS VL: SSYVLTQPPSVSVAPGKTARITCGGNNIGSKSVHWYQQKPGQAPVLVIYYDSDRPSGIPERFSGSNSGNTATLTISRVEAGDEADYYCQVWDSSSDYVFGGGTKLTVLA
2. COVID19_P14_H10 (scFv, V domains shown) VH: QVQLVQSGAEVKKPGSSVKVSCKASGGSFSRFPISWVRQAPGQGLEWMGGIIPIFGTANYAQRFQGRVTITADESTSTAYMELSSLRSEDTAVYYCALETVMGGLQVWGQGTLVTVSS VL: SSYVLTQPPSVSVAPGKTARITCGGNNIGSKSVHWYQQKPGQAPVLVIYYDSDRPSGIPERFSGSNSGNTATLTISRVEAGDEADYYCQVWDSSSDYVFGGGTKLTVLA
3. COVID19_P01_G05 (scFv, V domains shown) VH: QVQLVQSGAEVKKPGSSVKVSCKASGYTFTDFYIHWVRQAPGQGLEWMGGIIPIFGTANYAQKFQGRVTITADESTSTAYMELSSLRSEDTAVYYCALETVMGGMDVWGQGTLVTVSS VL: SSYVLTQPPSVSVAPGKTARITCGGNNIGSKSVHWYQQKPGQAPVLVIYYDSDRPSGIPERFSGSNSGNTATLTISRVEAGDEADYYCQVWDSSSHYVFGGGTKLTVLA
4. COVID19_P02_A11 (scFv, V domains shown) VH: QVQLVQSGAEVKKPGSSVKVSCKASGSTFSMFAINWVRQAPGQGLEWVGVINPRGSSTTYAQKFQGRVTITADESTSTAYMELSSLRSEDTAVYYCARDTVMGGMDVWGQGTLVTVSS VL: SSYVLTQPPSVSVAPGKTARITCGGNNIGSKSVHWYQQKPGQAPVLVIYYDSDRPSGIPERFSGSNSGNTATLTISRVEAGDEADYYCQVWDRSSDYVFGGGTKLTVLA

Output:
1. 0.00088
2. 0.01
3. 0.00123
4. 0.0147

Need koff for each of these binders.
1. COVID19_P14_E07 (scFv, V domains shown) VH: QVQLVQSGAEVKKPGSSVKVSCKASGYTFINYDINWVRQAPGQGLEWMGGITPIFGTANYAQKFQGRVTITADESTSTAYMELSSLRSEDTAVYYCARDTVMGGMDVWGQGTLVTVSS VL: SSYVLTQPPSVSVAPGKTARITCGGNNIGSKSVHWYQQKPGQAPVLVIYYDSDRPSGIPERFSGSNSGNTATLTISRVEAGDEADYYCQVWDSHSDYVFGGGTKLTVLA
2. COVID19_P01_H07 (scFv, V domains shown) VH: QVQLVQSGAEVKKPGSSVKVSCKASGYSFNNYDLHWVRQAPGQGLEWMGGIIPIFDTANYAQKFQGRVTITADESTSTAYMELSSLRSEDTAVYYCALETVMGGMVKWGQGTLVTVSS VL: SSYVLTQPPSVSVAPGKTARITCGGNNIGSKSVHWYQQKPGQAPVLVIYYDSDRPSGIPERFSGSNSGNTATLTISRIEAGDEADYYCQVWDSSGDYVFGGGTKLTVLA
3. COVID19_P14_B05 (scFv, V domains shown) VH: QVQLVQSGAEVKKPGSSVKVSCKASGGTFSSYTISWVRQAPGQGLEWMGIINPSGGSTSYAQKFQGRVTITADESTSTAYMELSSLRSEDTAVYYCARDTVMGGMGVWGQGTLVTVSS VL: SSYVLTQPPSVSVAPGKTARITCGGNNIGSKSVHWYQQKPGQAPVLVIYYDSDRPSGIPERFSGSNSGNTATLTISRVEAGDEADYYCQVWDSSSFYVFGGGTKLTVLA
4. COVID19_P14_F08 (scFv, V domains shown) VH: QVQLVQSGAEVKKPGSSVKVSCKASGYTFTAFYIHWVRQAPGQGLEWMGGIIPISGTANYAQKFQGRATITADESTSTAYMELSSLRSEDTAVYYCAREVVMGGMDVWGQGTLVTVSS VL: SSYVLTQPPSVSVAPGKTARITCGGNNIGSKSVHWYQQKPGQAPVLVIYYDSDRPSGIPERFSGSNSGNTATLTISRVEAGDEADYYCQVWDSTSDYVFGGGTKLTVLA

Output:
0.000778
0.000401
0.0141
0.00283
